Assay Summary: Aqueous solubility of the compound at pH 6.8 after 24 hrs by high-throughput equilibrium solubility assay
Format: physicochemical
Cond: buffer
Listed compounds paired with reported solubility thermodynamic at 24 h

[[record]]
compound = "Cc1nc(C)c2cc(C(=O)N[C@@H]3CCCC[C@@H]3C)[nH]c2n1"
observed_measurement = "143 µM"


Returns the measured solubility thermodynamic at 24 h for the input compound. Input: Cc1cc(C)c2cc(C(=O)NC3CCCCCC3)[nH]c2c1
< 4 µM

Another compound to look at: Cc1cc(C)c2cc(C(=O)NC(C)C)[nH]c2c1
20 µM

Another compound: COCCNC(=O)c1cc2c(C)cc(C)cc2[nH]1
620 µM

* * *

Assay Summary: AUC (0 to 24 hrs) in mouse at 5 mg/kg, iv and 75 mg/kg, po by LC/MS analysis
Assay type: ADME, organism-based
Cond: plasma
AUC(0-t): recorded values
Give a bare numeral; the unit µM·h is implied.

[[record]]
record_smiles = "C[C@H]1CC[C@H](NC(=O)c2cc3c(Cl)cc(Cl)cc3[nH]2)CC1"
endpoint = "AUC(0-t)"
unit_tag = "µM·h"
observed_measurement = 89.1


Please find the next compound below.
Please look up its AUC(0-t): CC1(C)CCC(NC(=O)c2cc3c(Cl)cc(Cl)cc3[nH]2)CC1
70.3

* * *

Assay Summary: Volume of distribution at steady state in mouse at 5 mg/kg, iv by LC/MS analysis
Format: ADME, organism-based
Parameters: dose 5 mg/kg, route intravenous
Cond: in vivo, read-out: Vdss
Endpoint: Vd
Value and unit, in that order.

[[record]]
compound = "CC1(C)CCC(NC(=O)c2cc3c(F)cc(F)cc3[nH]2)CC1"
endpoint = "Vd"
observed_measurement = "2.24 L/kg"

[[record]]
compound = "CC1CCC(NC(=O)c2cc3c(Cl)cc(Cl)cc3[nH]2)CC1 (stereo not drawn)"
endpoint = "Vd"
observed_measurement = "2.2 L/kg"


Find the recorded Vd belonging to CC1(C)CCC(NC(=O)c2cc3c(Cl)cc(Cl)cc3[nH]2)CC1 and report it.
4.11 L/kg

* * *

Assay Summary: AUC (0 to 24 hrs) in mouse at 25 mg/kg, po by LC/MS analysis
Assay type: ADME, organism-based
Parameters: time < 24 hr, dose 25 mg/kg, route oral
Cond: plasma
A collection of compounds and their measured AUC(0-t) at 24 h
Unit µM·h implied. Number only.

In the examples that follow, each entry is paired with its recorded AUC(0-t) at 24 h.
[[record]]
compound = "CC1(C)CCC(NC(=O)c2cc3c(F)cc(F)cc3[nH]2)CC1"
endpoint = "AUC(0-t) at 24 h"
observed_measurement = 35.5

[[record]]
compound = "CC1(C)CCC(NC(=O)c2cc3c(Cl)cc(Cl)cc3[nH]2)CC1"
endpoint = "AUC(0-t) at 24 h"
observed_measurement = 33.9


Continue with the next compound.
Query: AUC(0-t) at 24 h; subject: CC1CCC(NC(=O)c2cc3c(Cl)cc(Cl)cc3[nH]2)CC1 (stereo not drawn)
30.4

* * *

Entries and their microsomal CLint values follow.
Assay Summary: Intrinsic clearance in rat liver microsomes by LC/MS/MS analysis
Assay type: ADME
Cond: read-out: CLH
Please give a number only; it is taken to be in µL/min/mg.

Below, each entry is followed by its recorded microsomal CLint result.
[[record]]
record_smiles = "O=C(NC1CCC(F)(F)CC1)c1cc2c(Cl)cc(Cl)cc2[nH]1"
observed_measurement = 38.8

[[record]]
record_smiles = "CC1(C)CCC(NC(=O)c2cc3c(F)cc(F)cc3[nH]2)CC1"
observed_measurement = 87

[[record]]
record_smiles = "C[C@H]1CC[C@H](NC(=O)c2cc3c(Cl)cc(Cl)cc3[nH]2)CC1"
observed_measurement = 30.5


// below: microsomal CLint requested for another molecule
I would be grateful if you could share the reported microsomal CLint for CC1(C)CCC(NC(=O)c2cc3c(Cl)cc(Cl)cc3[nH]2)CC1 .
139

* * *

Assay Summary: Intrinsic clearance in mouse liver microsomes by LC/MS/MS analysis
Assay type: ADME, Microsome
Cond: read-out: CLH
Endpoint: microsomal CLint (µL/min/mg)
Express it in µL/min/mg; write the number only.

Known results for molecules:
[[record]]
molecule = "CC1CCC(NC(=O)c2cc3ccc(Cl)cc3[nH]2)CC1 (configuration not stated)"
observed_measurement = 433

[[record]]
molecule = "C[C@H]1CCCC[C@H]1NC(=O)c1cc2c(Cl)cc(Cl)cc2[nH]1"
observed_measurement = 89

[[record]]
molecule = "CC1CCC(NC(=O)c2cc3c(Cl)c(Cl)ccc3[nH]2)CC1 (configuration not stated)"
observed_measurement = 60.8

[[record]]
molecule = "CC1(C)CCC(NC(=O)c2cc3c(F)cc(F)cc3[nH]2)CC1"
observed_measurement = 132

[[record]]
molecule = "Cc1cc(C)c2cc(C(=O)N[C@@H]3CCCC[C@@H]3C)[nH]c2c1"
observed_measurement = 433

[[record]]
molecule = "C[C@H]1CC[C@H](NC(=O)c2cc3c(F)cc(F)cc3[nH]2)CC1"
observed_measurement = 149


What value of microsomal CLint has been recorded for this entry: CC1CCC(NC(=O)c2cc3c(Cl)ccc(Cl)c3[nH]2)CC1 (configuration not stated)
40.4

// repeat for CC1CCC(NC(=O)c2cc3c(Cl)cc(F)cc3[nH]2)CC1 (configuration not stated) and report
77

Would you kindly repeat that for CC1CCC(NC(=O)c2cc3cc(Cl)cc(Cl)c3[nH]2)CC1 (configuration not stated) ?
187

Same lookup for CC1CCC(NC(=O)c2cc3cc(Cl)c(Cl)cc3[nH]2)CC1 (configuration not stated) , please.
73.3

Next molecule up: CC1(C)CCC(NC(=O)c2cc3c(Cl)cc(Cl)cc3[nH]2)CC1
13

// same read-out, input: CC1CCC(NC(=O)c2cc3c(F)cc(Cl)cc3[nH]2)CC1 (configuration not stated)
28

Could you do the same for CC1CCC(NC(=O)c2cc3c(F)cc(F)cc3[nH]2)CC1 (configuration not stated) , please?
866

* * *

Each entry below lists one item and its recorded Cmax value.
Assay Summary: Cmax in mouse at 25 mg/kg, po by LC/MS analysis
Format: ADME, organism-based
Parameters: dose 25 mg/kg, route oral
Cond: in vivo
Kindly answer with a numeric value in µM, unit omitted.

Previously resolved entries follow.
[[record]]
compound = "CC1CCC(NC(=O)c2cc3c(Cl)cc(Cl)cc3[nH]2)CC1 (stereo not drawn)"
endpoint = "Cmax"
observed_measurement = 7.23

[[record]]
compound = "CC1(C)CCC(NC(=O)c2cc3c(Cl)cc(Cl)cc3[nH]2)CC1"
endpoint = "Cmax"
observed_measurement = 3.51


// moving on: another record for Cmax
Give its Cmax value. Item: CC1(C)CCC(NC(=O)c2cc3c(F)cc(F)cc3[nH]2)CC1
4.21

* * *

Assay Summary: Clearance in mouse at 5 mg/kg, iv by LC/MS analysis
Assay type: ADME, organism-based
Parameters: dose 5 mg/kg, route intravenous
Cond: in vivo
Endpoint: clearance
Don't forget the unit after the value.

Example entries and their recorded answers appear below.
[[record]]
molecule = "CC1(C)CCC(NC(=O)c2cc3c(F)cc(F)cc3[nH]2)CC1"
observed_measurement = "18.7 mL/min/kg"

[[record]]
molecule = "CC1(C)CCC(NC(=O)c2cc3c(Cl)cc(Cl)cc3[nH]2)CC1"
observed_measurement = "18.1 mL/min/kg"


Below: the item to evaluate.
What does the record list as clearance for CC1CCC(NC(=O)c2cc3c(Cl)cc(Cl)cc3[nH]2)CC1 (stereo not drawn) ?
20.1 mL/min/kg

* * *

Assay Summary: Intrinsic clearance in human liver microsomes by LC/MS/MS analysis
Type: ADME
Cond: read-out: CLH
Endpoint: microsomal CLint (µL/min/mg)
Value expressed in µL/min/mg; do not type the unit.

Below are worked cases with known answers.
[[record]]
record_smiles = "CC1(C)CCC(NC(=O)c2cc3c(Cl)cc(Cl)cc3[nH]2)CC1"
endpoint = "microsomal CLint"
observed_measurement = 59

[[record]]
record_smiles = "O=C(NC1CCC(F)(F)CC1)c1cc2c(Cl)cc(Cl)cc2[nH]1"
endpoint = "microsomal CLint"
observed_measurement = 7.8

[[record]]
record_smiles = "C[C@H]1CC[C@H](NC(=O)c2cc3c(Cl)cc(Cl)cc3[nH]2)CC1"
endpoint = "microsomal CLint"
observed_measurement = 10


Kindly review the next compound as well.
Any idea what microsomal CLint was measured for CC1(C)CCC(NC(=O)c2cc3c(F)cc(F)cc3[nH]2)CC1 ?
3.4

* * *

Catalogue of solubility thermodynamic at 24 h readings, one per entry.
Assay Summary: Aqueous solubility of the compound at pH 6.8 after 24 hrs by high-throughput equilibrium solubility assay
Format: physicochemical
Cond: buffer

The examples below pair each entry with its known result.
[[record]]
compound = "O=C(NC1CCC(F)(F)CC1)c1cc2c(Cl)cc(Cl)cc2[nH]1"
observed_measurement = "< 4 µM"

[[record]]
compound = "C[C@H]1CC[C@H](NC(=O)c2cc3c(F)cc(F)cc3[nH]2)CC1"
observed_measurement = "< 4 µM"

[[record]]
compound = "Cc1cc(C)c2cc(C(=O)N[C@@H]3CCCC[C@@H]3C)[nH]c2c1"
observed_measurement = "< 4 µM"

[[record]]
compound = "C[C@H]1CC[C@H](NC(=O)c2cc3c(Cl)cc(Cl)cc3[nH]2)CC1"
observed_measurement = "< 4 µM"


Name the reported solubility thermodynamic at 24 h value associated with the compound C[C@H]1CCCC[C@H]1NC(=O)c1cc2c(Cl)cc(Cl)cc2[nH]1
< 4 µM

Subsequent entry: Cc1cc(C)c2cc(C(=O)NC3CCOCC3)[nH]c2c1
17 µM

Same read-out for C[C@H]1CCCC[C@H]1NC(=O)c1cc2c(F)cc(F)cc2[nH]1 ?
< 4 µM

What would you report for CCC(C)NC(=O)c1cc2c(C)cc(C)cc2[nH]1 (stereo unspecified) ?
22 µM

And Cc1cc(C)c2cc(C(=O)NC3CCCCC3)[nH]c2c1 ?
< 4 µM
